Kindly supply the reported activity at 25 µM values for the records listed here.
# Test system: C3H10T1/2 cells
# experimental.protocol: Adipocyte differentiation: lipid accumulation in induced C3H10T1/2 pre-adipocytes (Bodipy stain, Cellomics ArrayScan)
# Type: cell-based
# condition.parameters: Mus musculus, C3H 10T1/2, 168 h; 25 μM compound + inducers of differentiation, 7 days; read-out: Cellular lipids (in % of differentiated cells)
Numbers only, in %.

Record excerpt, results attached:
INSERT INTO results (molecule, value_unit, numeric_value) VALUES
  ('O=c1c(-c2ccc(O)cc2)coc2cc(O)cc(O)c12', '%', 95.9),
  ('CC/C=C\C/C=C\C/C=C\C/C=C\C/C=C\CCCC(=O)O', '%', 74.1),
  ('Oc1ccc(C=Cc2cc(O)cc(O)c2)cc1', '%', 103),
  ('OCCc1ccc(O)c(O)c1 [Hydroxytyrosol]', '%', 68.3);

input: Quick one: activity at 25 µM for CC/C=C\C/C=C\C/C=C\C/C=C\C/C=C\C/C=C\CCC(=O)O ?
output: 66.2

Reference for the values: patent US20100015262A1
